// provenance: the supplement of paper PMC12645437

Listing of entries alongside the reported log2 fold change of degron read counts.
Biological target: T1, CRBN, Q96SW2;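 further: pooled lentiviral library of zinc finger degron-EGFP fusions in mCherry-positive Jurkat cells, FACS-sorted after compound exposure, with degron abundance counted by next-generation sequencing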
T1 chain: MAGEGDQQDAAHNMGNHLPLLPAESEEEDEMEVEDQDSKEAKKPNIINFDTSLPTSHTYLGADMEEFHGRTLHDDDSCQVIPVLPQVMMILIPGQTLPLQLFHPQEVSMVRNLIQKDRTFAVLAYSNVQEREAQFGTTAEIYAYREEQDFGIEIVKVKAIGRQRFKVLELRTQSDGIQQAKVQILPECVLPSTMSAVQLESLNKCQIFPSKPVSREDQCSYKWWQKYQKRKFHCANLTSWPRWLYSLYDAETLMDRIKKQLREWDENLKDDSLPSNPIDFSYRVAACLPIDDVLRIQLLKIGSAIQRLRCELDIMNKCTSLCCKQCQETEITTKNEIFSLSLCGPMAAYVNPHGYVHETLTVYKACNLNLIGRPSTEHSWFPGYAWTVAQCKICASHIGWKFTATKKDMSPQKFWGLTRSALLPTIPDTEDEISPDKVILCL
Assay: log2 fold change of degron read counts, EGFP-low vs EGFP+ sorted cells (limma voom), compound-induced degradation; higher = more compound-induced degradation of the degron-EGFP fusion; degrons are variants of IKZF1/3 zinc finger 2; compound dose not given here
Details: Jurkat; 18 h; compound: compound 33 (diphenyl IMiD analogue)
In all, about 8,300 sequences were measured (“log2 fold change of degron read counts, EGFP-low vs EGFP+ sorted cells (limma voom), compound-induced degradation”: median about -1.1, highest 2% from about 3.2 on). Many of the other results were omitted from the sample, so the highest values are more common in it than they were.

// below: answered sequences
>>> readout_value("FDCEICGARFTQKGNLLRHIKL [46F_47D_49E_50I_52G_53A_54R_55F_67L_, Q9UKT9]")
0.651
>>> readout_value("FHCPICGRFFTQKGNLLRHIKL [46F_47H_49P_50I_52G_53R_54F_55F_67L_, Q9UKT9]")
-0.739
>>> readout_value("FECEICGAAFTQKGNLLRHIKL [46F_47E_49E_50I_52G_53A_54A_55F_67L_, Q9UKT9]")
2.05
>>> readout_value("FRCEICGARFTQKGNLLRHIKL [46F_47R_49E_50I_52G_53A_54R_55F_67L_, Q9UKT9]")
-0.311

Incoming: Which measured log2 fold change of degron read counts value corresponds to FQCEICGARFTQKGNLLRHIKL [46F_47Q_49E_50I_52G_53A_54R_55F_67L_, Q9UKT9] ?
Outgoing: 1.34

Incoming: Which measured log2 fold change of degron read counts value corresponds to FMCEICGAAFTQKGNLLRHIKL [46F_47M_49E_50I_52G_53A_54A_55F_67L_, Q9UKT9] ?
Outgoing: 3.19

Incoming: Which measured log2 fold change of degron read counts value corresponds to FFCNVCGAYFTQKGNLLRHIKL [46F_47F_49N_50V_52G_53A_54Y_55F_67L_, Q9UKT9] ?
Outgoing: 0.144
